target.of.assay: SARS-CoV-2 RdRp (RNA-dependent RNA polymerase, NSP12) (Severe acute respiratory syndrome coronavirus 2)
value.kind: Kd (µM)
Give bare numbers, in µM.

Look up and state reported Kd for `C[C@H]1C(=O)CC[C@]2(C)[C@@H]1CC[C@@]13CC[C@@H]([C@@H](O)[C@H]12)[C@]1(COC(C)(C)O1)C3`
31.1
